- studyTarget: hPcf11 (CF II subunit);hClp1 (CF II subunit or alone) (human;human, UniProt O94913;Q92989 1-1555;1-425, |)
- Sequence (O94913 whole entry, chain 1 of 2): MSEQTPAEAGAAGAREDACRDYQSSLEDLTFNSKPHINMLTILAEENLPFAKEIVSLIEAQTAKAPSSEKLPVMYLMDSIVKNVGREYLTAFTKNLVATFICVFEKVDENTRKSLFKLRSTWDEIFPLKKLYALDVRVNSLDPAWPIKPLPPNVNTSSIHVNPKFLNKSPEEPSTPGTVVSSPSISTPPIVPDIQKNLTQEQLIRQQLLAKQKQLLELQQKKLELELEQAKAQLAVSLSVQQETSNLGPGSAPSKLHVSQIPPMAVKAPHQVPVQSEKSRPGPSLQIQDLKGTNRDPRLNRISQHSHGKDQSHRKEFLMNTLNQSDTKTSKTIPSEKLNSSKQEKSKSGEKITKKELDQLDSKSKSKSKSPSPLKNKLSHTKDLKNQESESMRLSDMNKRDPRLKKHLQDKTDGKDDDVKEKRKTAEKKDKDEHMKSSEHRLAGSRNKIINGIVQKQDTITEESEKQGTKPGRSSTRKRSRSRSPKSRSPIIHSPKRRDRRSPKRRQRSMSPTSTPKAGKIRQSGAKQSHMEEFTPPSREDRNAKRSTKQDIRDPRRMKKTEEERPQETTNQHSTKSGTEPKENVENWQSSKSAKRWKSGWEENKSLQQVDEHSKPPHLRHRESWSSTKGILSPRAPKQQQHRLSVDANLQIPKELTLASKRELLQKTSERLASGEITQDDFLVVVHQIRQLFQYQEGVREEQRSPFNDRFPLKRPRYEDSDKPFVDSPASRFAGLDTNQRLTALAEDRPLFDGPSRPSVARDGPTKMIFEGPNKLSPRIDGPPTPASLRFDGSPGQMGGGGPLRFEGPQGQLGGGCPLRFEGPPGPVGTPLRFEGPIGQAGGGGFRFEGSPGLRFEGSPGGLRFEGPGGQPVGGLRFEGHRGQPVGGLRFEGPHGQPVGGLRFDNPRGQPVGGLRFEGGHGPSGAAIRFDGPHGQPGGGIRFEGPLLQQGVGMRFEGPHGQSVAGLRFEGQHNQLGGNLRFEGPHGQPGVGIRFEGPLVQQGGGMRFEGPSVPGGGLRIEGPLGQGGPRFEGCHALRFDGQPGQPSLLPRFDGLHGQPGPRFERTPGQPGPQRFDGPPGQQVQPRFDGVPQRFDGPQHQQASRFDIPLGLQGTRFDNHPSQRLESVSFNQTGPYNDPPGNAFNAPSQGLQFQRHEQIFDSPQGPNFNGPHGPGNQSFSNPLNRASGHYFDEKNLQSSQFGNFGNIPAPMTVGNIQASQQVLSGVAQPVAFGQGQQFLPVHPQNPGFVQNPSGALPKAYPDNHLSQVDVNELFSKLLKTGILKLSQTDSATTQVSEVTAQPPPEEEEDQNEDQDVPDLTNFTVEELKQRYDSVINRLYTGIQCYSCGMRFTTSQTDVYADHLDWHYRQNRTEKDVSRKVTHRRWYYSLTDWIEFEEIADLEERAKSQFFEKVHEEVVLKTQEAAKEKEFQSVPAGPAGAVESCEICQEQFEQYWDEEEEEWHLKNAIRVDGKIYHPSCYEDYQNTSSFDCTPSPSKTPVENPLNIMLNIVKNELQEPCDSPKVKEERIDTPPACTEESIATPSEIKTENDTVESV
- Sequence (Q92989 whole entry, chain 2 of 2): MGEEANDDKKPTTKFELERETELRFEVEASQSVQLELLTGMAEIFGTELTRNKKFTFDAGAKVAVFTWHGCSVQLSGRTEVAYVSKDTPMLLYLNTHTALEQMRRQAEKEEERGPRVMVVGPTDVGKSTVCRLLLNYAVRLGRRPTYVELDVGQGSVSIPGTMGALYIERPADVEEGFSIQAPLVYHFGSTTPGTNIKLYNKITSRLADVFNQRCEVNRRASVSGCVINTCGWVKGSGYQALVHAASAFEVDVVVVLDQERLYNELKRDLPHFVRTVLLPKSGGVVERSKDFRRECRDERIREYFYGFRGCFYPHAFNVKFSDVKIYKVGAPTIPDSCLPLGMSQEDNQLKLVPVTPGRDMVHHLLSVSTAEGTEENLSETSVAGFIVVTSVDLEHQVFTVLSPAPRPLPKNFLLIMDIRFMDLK
- assayText: EMSA
endpointName: Kd

Query: Give reported Kd value for GGGGGGGGGGGGGG (ssRNA) [G14]
Response: ~2 nM

Provenance of the data: paper PMC6239180
